Read-out: Transforming growth factor beta 1 (TGFb1), TGFB1 (gene 7040)
Assay: BSK_KF3CT_TGFb1: BioMAP Diversity Plus: KF3CT Assay for Transforming growth factor beta 1 (TGFb1) Biomarker Activity (AID 2283072)
Conditions: primary human keratinocytes with fibroblasts; actives raise or lower the signal
Activity calls are given as the source filed them. The calls were made as follows: active = hit-call score of the fitted dose curve at least 0.9, where 1 is the maximum; inactive = score below 0.9.
Pick one and only one: active, inactive

Assay result, entry C#CC(O)C(CC)CCCC (centres undefined) — outcome?
inactive

Item: Cc1cc(SC2=C(O)C[C@@](CCc3ccc(N)cc3)(C(C)C)OC2=O)c(C(C)(C)C)cc1CO
inactive

Item: Cc1ccc(-c2cc(C(F)(F)F)nn2-c2ccc(S(N)(=O)=O)cc2)cc1
inactive

Item: Cc1occc(=O)c1O
inactive

Item: CCCCC(CC)CO (centres undefined)
inactive

Item: CC1(C)C(=O)NC(=O)N1CO
inactive

Item: COc1ccc(C(=O)Nc2nc3ccccc3c(NCc3ccccc3)c2C#N)cc1
inactive

Item: CCCCC(CC)COP(=O)(OCC(CC)CCCC)OCC(CC)CCCC (centres undefined)
inactive

Item: CC(=O)[C@@]1(O)CC[C@H]2[C@@H]3CCC4=CC(=O)CC[C@]4(C)[C@H]3CC[C@@]21C
inactive

Item: CCc1nc(N)nc(N)c1-c1ccc(Cl)cc1
inactive

Item: Cn1cnc2c1c(=O)[nH]c(=O)n2C
inactive

Item: CCc1cc(C2=C(C(=O)O)N(c3ccccc3C(F)(F)F)S(=O)(=O)c3ccccc32)cc2c1OCO2
inactive

Item: O=C(NS(=O)(=O)/C=C/c1cccs1)c1ccc(F)cc1Br
inactive

Item: O=C1NC(=O)C(c2ccccc2)(c2ccccc2)N1
inactive

Item: CC(=O)S[C@H](C(=O)N[C@H]1Cc2ccccc2[C@H]2CCC[C@@H](C(=O)O)N2C1=O)C(C)C
inactive

Item: CC(=O)O[C@]1(C(C)=O)CC[C@H]2[C@@H]3C=C(Cl)C4=CC(=O)[C@@H]5C[C@@H]5[C@]4(C)[C@H]3CC[C@@]21C
inactive

Item: N[C@@H](Cc1c[nH]c2ccccc12)C(=O)O
inactive

Item: Nc1nc(Cl)nc2c1ncn2[C@H]1C[C@H](O)[C@@H](CO)O1
inactive

Item: O=NO
inactive

Item: CC(=O)CC(c1ccccc1)c1c(O)c2ccccc2oc1=O (centres undefined)
inactive

Item: O=C1OC(c2ccc(O)cc2)(c2ccc(O)cc2)c2ccccc21
active

Item: NC=O
inactive

Item: CCCC[C@H]1CN(CC2CCOCC2)C(=O)OC12CCN(C1(C)CCN(C(=O)c3c(C)ncnc3C)CC1)CC2
inactive

Item: O=C(O)c1cccnc1
inactive

====

Read-out: Cyclin D1 (CCND1), CCND1 (gene 595)
Assay: LTEA_HepaRG_CCND1: Life Technologies and Expression Analysis (LTEA) Assay for Cyclin D1 (CCND1) using HepaRG (AID 2283451)
Conditions: mRNA level, 48 h; actives raise or lower the signal
Active and inactive are the calls of the source. The calls were made as follows: active = hit-call score of the fitted dose curve at least 0.9, where 1 is the maximum; inactive = score below 0.9.
Pick one and only one: active, inactive

Assay result, entry O=C(Oc1ccccc1)c1cccc(C(=O)Oc2ccccc2)c1 — outcome?
inactive

Item: CC(=O)CC(c1ccccc1)c1c(O)c2ccccc2oc1=O (configuration not stated)
inactive

Item: COC(=O)[C@H]1[C@H]2C[C@@H]3c4[nH]c5cc(OC)ccc5c4CCN3C[C@H]2C[C@@H](OC(=O)c2cc(OC)c(OC)c(OC)c2)[C@@H]1OC
inactive

Item: Cc1cc(SC2=C(O)C[C@@](CCc3ccc(N)cc3)(C(C)C)OC2=O)c(C(C)(C)C)cc1CO
inactive

Item: Nc1nc(Cl)nc2c1ncn2[C@H]1C[C@H](O)[C@@H](CO)O1
active

Item: O=Cc1ccccc1C=O
inactive

Item: CCOCCOCCO
inactive

Item: CCCCOC(=O)CCCCC(=O)OCCCC
inactive

Item: CCCC(=O)O
inactive

Item: CN(C)CCCN1c2ccccc2Sc2ccc(Cl)cc21
active

Item: CCN(CC)CCOc1ccc(C(=C(Cl)c2ccccc2)c2ccccc2)cc1
inactive

Item: CC(C)(C)c1ccccc1
inactive

====

Read-out: Heat shock 70 kDa protein 1 (HSPA1A), gene 3303
Assay: LTEA_HepaRG_HSPA1A: Life Technologies and Expression Analysis (LTEA) Assay for Heat shock 70 kDa protein 1 (HSPA1A) using HepaRG (AID 2283502)
Details: mRNA level, 48 h; actives raise or lower the signal
Active and inactive are the calls of the source. The calls were made as follows: active = hit-call score of the fitted dose curve at least 0.9, where 1 is the maximum; inactive = score below 0.9.
Pick one and only one: label 1 (active), label 0 (inactive)

Assay result, entry N[C@@H](Cc1c[nH]c2ccccc12)C(=O)O — outcome?
label 0

Item: CC(=O)OCC(COC(C)=O)OC(C)=O
label 0

Item: COc1ccc(C(=O)Nc2nc3ccccc3c(NCc3ccccc3)c2C#N)cc1
label 0

Item: CC(=O)O
label 0

Item: O=C1O[C@H]([C@H](O)CO)C(O)=C1O
label 0

Item: O=C(NS(=O)(=O)/C=C/c1cccs1)c1ccc(F)cc1Br
label 0

Item: CCCCOC(=O)CCCCC(=O)OCCCC
label 0

Item: Cc1c(C)c2c(c(C)c1O)CCC(C)(COc1ccc(CC3SC(=O)NC3=O)cc1)O2 (centres undefined)
label 1

Item: C/C=C/C=C/C(=O)O
label 0

Item: Oc1ccc(O)cc1
label 0

Item: CCCCCCCCCCCCCCCCO
label 0

Item: Oc1ccccc1O
label 0

Item: CCc1nc(N)nc(N)c1-c1ccc(Cl)cc1
label 0

Item: O=C(Oc1ccccc1)c1cccc(C(=O)Oc2ccccc2)c1
label 0

====

Assay: CCTE_Shafer_MEA_acute_burst_percentage_std: CCTE's Neural Acute Assay for Standard Deviation of Burst Percentage, Shafer Lab (AID 2284018);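 also: fitted in the negative direction so actives lower burst percentage SD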
The source made the active and inactive calls. How the source made its calls: active means hit-call score of the fitted dose curve at least 0.9, where 1 is the maximum; inactive means score below 0.9.
Pick one and only one: active, inactive

Assay result, entry Cc1c(C)c2c(c(C)c1O)CCC(C)(COc1ccc(CC3SC(=O)NC3=O)cc1)O2 (configuration not stated) — outcome?
active

Item: CC(C)COC(=O)CCCCC(=O)OCC(C)C
inactive

Item: Cc1cc(SC2=C(O)C[C@@](CCc3ccc(N)cc3)(C(C)C)OC2=O)c(C(C)(C)C)cc1CO
inactive

Item: CC(N)=O
inactive

Item: CN(C)C(=O)NC1(c2ccccc2)CCN(CC[C@@]2(c3ccc(F)c(F)c3)CN(C(=O)c3ccccc3)CCO2)CC1
inactive

Item: NC(=Nc1ccccc1)Nc1ccccc1
inactive

Item: Cc1ccc(C(C)(C)C)c(O)c1
inactive

====

Experiment: APR_HepG2_CellLoss_24hr: Apredica 24-hour HepG2 Assay for Cell Loss (AID 2282908)
Settings: high-content imaging
Activity calls are given as the source filed them. The calls were made as follows: active = hit-call score of the fitted dose curve at least 0.9, where 1 is the maximum; inactive = score below 0.9.
Pick one and only one: TRUE for active, FALSE for inactive

Assay result, entry CCCC(=O)O — outcome?
FALSE

Item: CC(C)(O)c1ccc(CNC(=O)c2cccnc2Oc2ccc(F)cc2)cc1
FALSE

Item: O=Cc1ccccc1C=O
FALSE

Item: COC(=O)CCC(=O)OC
FALSE

Item: O=C(O)c1[nH]n(-c2ccc(S(=O)(=O)O)cc2)c(=O)c1N=Nc1ccc(S(=O)(=O)O)cc1
FALSE

Item: N[C@@H](Cc1c[nH]c2ccccc12)C(=O)O
FALSE

Item: C/C=C/C=C/C(=O)O
FALSE

Item: Cc1occc(=O)c1O
FALSE

Item: CS(=O)(=O)c1ccc([C@@H](C[C@H]2CCC(=O)C2)C(=O)Nc2cnccn2)cc1Cl
FALSE

Item: CC(C)c1cccc(C(C)C)c1
FALSE

Item: O=C(O)CC(O)(CC(=O)O)C(=O)O
FALSE

Item: NCCOCCOCCN
TRUE

Item: CC(=O)O[C@]1(C(C)=O)CC[C@H]2[C@@H]3C=C(Cl)C4=CC(=O)[C@@H]5C[C@@H]5[C@]4(C)[C@H]3CC[C@@]21C
FALSE

Item: O=C1NC(=O)C(c2ccccc2)(c2ccccc2)N1
FALSE

Item: O=C(Oc1ccccc1)c1cccc(C(=O)Oc2ccccc2)c1
FALSE

Item: CCCCCCCCCCCCCCOS(=O)(=O)O
TRUE

Item: CCc1cc(C2=C(C(=O)O)N(c3ccccc3C(F)(F)F)S(=O)(=O)c3ccccc32)cc2c1OCO2
FALSE

Item: Oc1ccccc1O
FALSE

Item: Cc1ccc(-c2cc(C(F)(F)F)nn2-c2ccc(S(N)(=O)=O)cc2)cc1
TRUE

Item: CC(C)c1cccc(C(C)C)c1NC(=O)NS(=O)(=O)c1cc(C(C)(C)O)co1
FALSE

Item: CO[C@@H]1COCC[C@@H]1N[C@@H]1CC[C@@](C(=O)N2CCc3ncc(C(F)(F)F)cc3C2)(C(C)C)C1
FALSE

Item: CC(C)(C)c1ccccc1
FALSE

Item: c1ccc2occc2c1
FALSE

Item: NC1CCCCC1
FALSE

Item: C#CC(O)C(CC)CCCC (configuration not stated)
FALSE

Item: CC(N)=O
FALSE

Item: CCCCCCCC(=O)OC
FALSE
